System: R275C/beta1
Assay: modulators of BK channel variants, profiling panel, selectivity assay, cell-based, U2OS BacMam, thallium flux, beta subunits (AID 1259406);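 further: initial slope of Thallos dye fluorescence rise after thallium is added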
Conditions: at 30 µM
Each record's class is read off its log fold change Tl+ flux using these ranges: low (below 0.002), medium (0.002 to below 0.04), high (0.04 or more)

[
  {
    "compound": "CO[C@H]1C=CO[C@@]2(C)Oc3c(C)c(O)c4c(O)c(c5c(nc6cc(C)ccn65)c4c3C2=O)NC(=O)C(C)=CC=C[C@H](C)[C@H](O)[C@@H](C)[C@@H](O)[C@@H](C)[C@H](OC(C)=O)[C@@H]1C",
    "assignedClass": "medium"
  }
]

Query :: Class label required: COc1cc(C[C@@H](CO)[C@H](CO)Cc2ccc(O)c(OC)c2)ccc1O
Result :: low

Query :: Exercise: read the entry COc1c(N2C[C@@H]3CCCN[C@@H]3C2)c(F)cc2c(=O)c(C(=O)O)cn(C3CC3)c12 and state which class it falls under.
Result :: low

Query :: Hey, which category is Cc1ccc(NC(=S)NCCO)cc1 in, do you know?
Result :: low

Query :: Category of Cn1cnc2cccc(F)c2c1=N , please.
Result :: medium
